Overview of recorded APTT for various molecules
# Species on record: Rattus norvegicus
# experimental_details: Open TG-GATES - Regimen: Daily Repeat
# Format: toxicity, organism-based, Sprague-Dawley
# Parameters: regimen Daily Repeat, gender Male, age 6 weeks
# condition_summary: in vivo, po, 300 mg/kg, […], tissue Blood, route gavage, dose level Middle, time 14 day

>  <line_notation>
CNC(=C[N+](=O)[O-])NCCSCc1ccc(CN(C)C)o1

>  <APTT>
19.1 s

$$$$
>  <line_notation>
CN/C(=N/CCSCc1nc[nH]c1C)NC#N

>  <APTT>
18.9 s

$$$$
>  <line_notation>
Cc1nnc2n1-c1ccc(Cl)cc1C(c1ccccc1Cl)=NC2

>  <APTT>
17.8 s

$$$$
>  <line_notation>
COC(=O)C1=C(C)NC(C)=C(C(=O)OC)C1c1ccccc1[N+](=O)[O-]

>  <APTT>
19 s

$$$$
>  <line_notation>
O=C(OC[C@H]1O[C@@H](OC(=O)c2cc(O)c(O)c(OC(=O)c3cc(O)c(O)c(O)c3)c2)[C@H](OC(=O)c2cc(O)c(O)c(OC(=O)c3cc(O)c(O)c(O)c3)c2)[C@@H](OC(=O)c2cc(O)c(O)c(OC(=O)c3cc(O)c(O)c(O)c3)c2)[C@@H]1OC(=O)c1cc(O)c(O)c(OC(=O)c2cc(O)c(O)c(O)c2)c1)c1cc(O)c(O)c(OC(=O)c2cc(O)c(O)c(O)c2)c1

>  <APTT>
16.7 s

$$$$
